# System: ZIKV replicon in Vero cells
# assayText: ZIKV Replication Inhibition Assay (replicon, NanoLuc)
# condition: Zika virus, Vero, 72 h, read-out: Zika Replicon EC50
pEC50: −log10 of the molar value. Where a name gives a salt, the structure may show the parent alone.
valueKind: pEC50

>  <molecule>
O=C([N-]c1c[n+](Cc2ccc(-c3cccc4c3CNC4)cn2)no1)Nc1cccc(C(F)(F)F)c1

>  <valueKind>
pEC50

>  <result>
6.00 to 7.00

$$$$
>  <molecule>
Cc1nccnc1-c1ccc(C[n+]2cc([N-]C(=O)Nc3cccc(C(F)(F)F)c3)on2)cc1

>  <valueKind>
pEC50

>  <result>
6.00 to 7.00

$$$$
>  <molecule>
Cc1cnccc1-c1ccc(C[n+]2cc([N-]C(=O)Nc3cccc(C(F)(F)F)c3)on2)nc1

>  <valueKind>
pEC50

>  <result>
> 7.00

$$$$
>  <molecule>
O=C([N-]c1c[n+](Cc2ccc(-c3cncnc3C(F)(F)F)cn2)no1)Nc1cncc(C(F)(F)F)c1

>  <valueKind>
pEC50

>  <result>
> 7.00

$$$$
>  <molecule>
Cc1ncncc1-c1ccc(C[n+]2cc([N-]C(=O)Nc3cccc(C(F)(F)F)c3)on2)cc1

>  <valueKind>
pEC50

>  <result>
> 7.00

$$$$
>  <molecule>
Cc1noc(C)c1-c1ccc(C[n+]2cc([N-]C(=O)Nc3cccc(C(F)(F)F)c3)on2)cn1

>  <valueKind>
pEC50

>  <result>
> 7.00

$$$$
>  <molecule>
NC[C@H](Cc1ccc(-c2ccccc2)cc1)[n+]1cc([N-]C(=O)Nc2cccc(C(F)(F)F)c2)on1 [Example 65, formate]

>  <valueKind>
pEC50

>  <result>
4.70 to 6.00

$$$$

====

# testTarget: UniProtKB P06935
# Sequence (P06935 1502-1679 limits assumed): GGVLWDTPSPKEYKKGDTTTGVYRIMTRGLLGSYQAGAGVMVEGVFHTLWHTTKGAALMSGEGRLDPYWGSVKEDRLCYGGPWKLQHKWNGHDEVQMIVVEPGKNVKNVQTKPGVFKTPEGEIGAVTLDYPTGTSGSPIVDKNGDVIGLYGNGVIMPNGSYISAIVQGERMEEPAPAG
# Sequence (P06935 1371-1501 partner limits assumed): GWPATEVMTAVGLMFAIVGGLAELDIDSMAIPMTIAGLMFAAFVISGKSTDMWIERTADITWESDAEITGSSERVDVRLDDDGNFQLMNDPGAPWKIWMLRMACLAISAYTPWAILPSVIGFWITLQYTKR
# assayText: WNV Protease Inhibition Assay
# Type: biochemical
# Excerpt: WNV Protease Inhibition Assay
pIC50: −log10 of the molar value.
Item-by-item account of pIC50

>  <compound>
Cc1noc(C)c1-c1ccc(C[n+]2cc([N-]C(=O)Nc3ccc(F)c(C(F)(F)F)c3)on2)nc1 [Example 150]

>  <testTarget>
UniProtKB P06935

>  <pIC50>
6.00 to 7.00

$$$$
>  <compound>
O=C([N-]c1c[n+](Cc2cccc(Br)c2)no1)Nc1cccc(C(F)(F)F)c1 [Example 46]

>  <testTarget>
UniProtKB P06935

>  <pIC50>
6.00 to 7.00

$$$$
>  <compound>
Cc1noc(C)c1-c1ccc(C[n+]2cc([N-]C(=O)Nc3cccc(C(F)(F)F)n3)on2)nc1 [Example 161]

>  <testTarget>
UniProtKB P06935

>  <pIC50>
4.70 to 6.00

$$$$
>  <compound>
Cc1noc(C)c1-c1ccc(C[n+]2cc([N-]C(=O)Nc3ccc(Cl)c(C(F)(F)F)c3)on2)nc1 [Example 157]

>  <testTarget>
UniProtKB P06935

>  <pIC50>
4.70 to 6.00

$$$$
>  <compound>
Cc1ccncc1-c1ccc(C[n+]2cc([N-]C(=O)Nc3cncc(C(F)(F)F)c3)on2)nc1 [Example 149]

>  <testTarget>
UniProtKB P06935

>  <pIC50>
6.00 to 7.00

$$$$
>  <compound>
O=C([N-]c1c[n+]([C@@H](Cc2ccccc2)CN2CCCC2)no1)Nc1cccc(C(F)(F)F)c1 [Example 40]

>  <testTarget>
UniProtKB P06935

>  <pIC50>
4.70 to 6.00

$$$$
>  <compound>
Cc1cnncc1-c1ccc(C[n+]2cc([N-]C(=O)Nc3cncc(C(F)(F)F)c3)on2)nc1 [Example 128]

>  <testTarget>
UniProtKB P06935

>  <pIC50>
6.00 to 7.00

$$$$
>  <compound>
O=C([N-]c1c[n+](Cc2ccc(-c3cncnc3)cc2)no1)Nc1cccc(C(F)(F)F)c1 [Example 26]

>  <testTarget>
UniProtKB P06935

>  <pIC50>
6.00 to 7.00

$$$$
>  <compound>
O=C([N-]c1c[n+](Cc2ccc(I)cc2)no1)Nc1cncc(C(F)(F)F)c1 [Example 55]

>  <testTarget>
UniProtKB P06935

>  <pIC50>
6.00 to 7.00

$$$$
>  <compound>
Cc1noc(C)c1-c1cnc(C[n+]2cc([N-]C(=O)Nc3cccc(C(F)(F)F)c3)on2)nc1 [Example 167]

>  <testTarget>
UniProtKB P06935

>  <pIC50>
6.00 to 7.00

$$$$
>  <compound>
COc1ncc(-c2cccc(C[n+]3cc([N-]C(=O)Nc4cccc(C(F)(F)F)c4)on3)c2)cn1 [Example 53]

>  <testTarget>
UniProtKB P06935

>  <pIC50>
6.00 to 7.00

$$$$
>  <compound>
COc1ncc(-c2ccc(C[n+]3cc([N-]C(=O)Nc4cncc(C(F)(F)F)c4)on3)nc2)c(C)n1 [Example 133]

>  <testTarget>
UniProtKB P06935

>  <pIC50>
6.00 to 7.00

$$$$
>  <compound>
Cc1ncnc(C)c1-c1ccc(C[n+]2cc([N-]C(=O)Nc3cccc(C(F)(F)F)c3)on2)nn1 [Example 184]

>  <testTarget>
UniProtKB P06935

>  <pIC50>
6.00 to 7.00

$$$$
>  <compound>
Cc1noc(C)c1-c1ccc(C[n+]2cc([N-]C(=O)Nc3ncc(C(F)(F)F)s3)on2)nc1 [Example 166]

>  <testTarget>
UniProtKB P06935

>  <pIC50>
6.00 to 7.00

$$$$
>  <compound>
O=C([N-]c1c[n+](Cc2cccc(-c3cccnc3)c2)no1)Nc1cccc(C(F)(F)F)c1 [Example 51]

>  <testTarget>
UniProtKB P06935

>  <pIC50>
6.00 to 7.00

$$$$
